- targetOrTestSystem: T1, Murine APRIL (mouse, UniProt Q9D777 105-241, limits assumed)
- T1 sequence (looked up): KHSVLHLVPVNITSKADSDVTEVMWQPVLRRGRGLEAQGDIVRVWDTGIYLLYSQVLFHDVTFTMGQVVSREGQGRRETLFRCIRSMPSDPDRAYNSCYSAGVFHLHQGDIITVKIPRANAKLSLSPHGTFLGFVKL
- measurementProtocol: shotgun scan, phage display
experimentalEndpoint: F (APRIL)
Reply with just the number.

Qu. So what's the measured F (APRIL) for this one? SLSCRKEQGKFYDHLVRDCISCASICGQHPKQCAYFCENKLR (receptor, phage library variant, format as m9) [TACI_d2 L83V]
Ans. 4.8

Qu. Returns the measured F (APRIL) for the input binder. Input: SLSCRKEQGKFYDHLLRDCISCASACGQHPKQCAYFCENKLR (receptor, phage library variant, format as m9) [TACI_d2 I92A]
Ans. 11

Qu. For the binder shown here, SLSCRKEQGKAYDHLLRDCISCASICGQHPKQCAYFCENKLR (receptor, phage library variant, format as m9) [TACI_d2 F78A] , give the reported F (APRIL).
Ans. 29
